Experiment: Inhibition of platelet-activating factor receptor binding activity in dog platelets using [3H]-PAF as radioligand.
endpoint-label: IC50 (µM)

COc1cccc(-c2ccc(C(=O)NCCCCc3cccnc3)cc2)c1 = 0.28

1 = COc1ccc(-c2ccc(C(=O)N[C@H](C)CCCc3cccnc3)cc2[N+](=O)[O-])cc1OC
2 = O=C(NCCCCc1cccnc1)c1ccc(-c2cccc(F)c2)c(F)c1
// query Hi! Which is lower in terms of IC50, the first one 1 or the second one 2 ? Record your answer as the label of the chosen record.
// result 1
(1: 0.2 µM, 2: 2.1 µM)

----------
Test: Inhibition of platelet-activating factor receptor binding activity in dog platelets using [3H]-PAF as radioligand.
pIC50: −log10 of the molar value.
endpoint-label: pIC50

Illustrative cases are given below, each with its answer.
CCCc1cc(C(=O)N[C@H](C)CCCc2cccnc2)ccc1-c1ccc(OC)c(OC)c1 = 7.30
COc1ccc(-c2ccc(C(=S)N[C@H](C)CCCc3cccnc3)cc2)cc1OC = 7.22

a = C[C@H](CCCc1cccnc1)NC(=O)c1ccc(-c2ccccc2)c(-c2ccccc2)c1
b = COc1cccc(-c2ccc(C(=O)N[C@H](C)CCCc3cccnc3)cc2)c1
c = COc1ccc(-c2ccc(C(=O)NCCCCc3cccnc3)cc2OC)cc1OC
// query Sort the molecules on pIC50; start with the lowest figure. Kindly provide the labels arranged according to the requested ordering.
// result c, a, b
(c: 6.52, a: 7.30, b: 7.70)

----------
Assay: Inhibition of platelet-activating factor receptor binding activity in dog platelets using [3H]-PAF as radioligand.
endpoint-label: IC50 (nM)

COc1ccc(-c2ccc(C(=O)NCCCCc3cccnc3)cc2[N+](=O)[O-])cc1OC = 200
COc1ccc(-c2ccc(C(=O)NCCCCc3cccnc3)cc2Br)cc1OC = 220

1 = COc1ccc(-c2ccc(C(=O)NCCCCc3cccnc3)cc2)cc1OC
2 = COc1ccc(-c2ccc(C(=O)N[C@H](C)CCCc3cccnc3)cc2Br)cc1OC
// query Determine, for 1 and 2 , which has the greater value of IC50. Refer to your chosen entry by its label in the reply.
// result 1

a = COc1ccc(-c2ccc(C(=O)NCCCCc3cccnc3)cc2-c2ccc(OC)cc2)cc1
b = Cc1cccc(-c2ccc(C(=O)NCCCCc3cccnc3)cc2)c1
c = CCc1cc(C(=O)N[C@H](C)CCCc2cccnc2)ccc1-c1ccc(OC)c(OC)c1
// query Please rank these compounds by IC50 in descending order. Give the order by naming the labels one after another as requested.
// result b, a, c

a = O=C(NCCCCc1cccnc1)c1ccc(-c2cccc(O)c2)cc1
b = Cc1ccc(-c2ccc(C(=O)NCCCCc3cccnc3)cc2)cc1C
// query Returns: the argument ( a or b ) having the larger IC50. Indicate which entry you chose by stating its label.
// result a

----------
Assay: Inhibition of platelet-activating factor receptor binding activity in dog platelets using [3H]-PAF as radioligand.
endpoint-label: IC50 (µM)
Express the result in µM but write the number alone.

// query Would you mind telling me what IC50 value was observed for O=C(NCCCCc1cccnc1)c1ccc(-c2cccc(OC3=CC=CC=CC3)c2)cc1 ?
// result 0.7
